system: OVCAR-4 ovarian; assay: NCI tumour cell line growth inhibition, 48 h
I'd appreciate it if you could supply TGI values for the items below.

Sample records with TGI:
compound: CC12C(=C(C#N)C(=N)N1c1ccc(Cl)c(Cl)c1)C=C(O)CC2SCCS(=O)(=O)O (centres undefined)
TGI: > 100 µM
--
compound: CCCCCCCCCC(CCCC(O)CC(=O)O)OC1OC(COC2OC(C)C(OC(C)=O)C(O)C2O)C(O)C(O)C1OC1OC(CO)C(O)C(O)C1OC1OC(C)C(OC(=O)CC(C)C)C(O)C1O (centres undefined)
TGI: > 35 µM
--
compound: Cc1oc(N)c(S(=O)(=O)c2cc3ccccc3n(O)c2=N)c1C
TGI: > 100 µM

Now, please, on to the next compound.
Which TGI value belongs to CCN(CC)CCC1(C2CCCCC2)CCC(=O)NC1=O (centres undefined) ?
> 100 µM

---

For each record, write down the corresponding TGI.
test system: SN12C renal; assay: NCI tumour cell line growth inhibition, 48 h

# batch size: 8; output TGI per entry
1. O=C(CO[N+](=O)[O-])OC/C=C/c1ccccc1
2. CC(=O)OCC1OC(n2c(N)c(C#N)c(C)c(C#N)c2=S)C(OC(C)=O)C(OC(C)=O)C1OC(C)=O (centres undefined)
3. Cc1nc(N)c(-c2ccccc2)s1
4. C#CCNC(=O)NCCCCC(NC(C)=O)C(=O)NCc1ccccc1 (centres undefined)
5. CC1CCC(=O)C(C(O)CC2CC(=O)N(c3ccccc3)C(=O)C2)C1 (centres undefined)
6. CC(=O)OCC1OC(OCc2ccccc2)C(Br)C(OC(C)=O)C1OC(C)=O (centres undefined)
7. COc1cc(C2C(C(=O)Nc3ccc([N+](=O)[O-])cc3)=C(C)NC(C)=C2C(=O)Nc2ccc([N+](=O)[O-])cc2)ccc1O
8. CC(=O)C1(C)CC(C#N)(C#N)C(C#N)=C1N (centres undefined)

> 100 µM
> 100 µM
> 100 µM
> 100 µM
> 100 µM
> 100 µM
36.4 µM
> 100 µM

Record TGI for all entries; do not skip any.
1. CC[C@]1(O)CC2CN(CCc3c([nH]c4ccccc34)[C@@](C(=O)OC)(c3cc4c(cc3OC)N(C=O)[C@H]3[C@@](O)(C(=O)OC)[C@H](OC(C)=O)[C@]5(CC)C=CCN6CC[C@]43[C@@H]65)C2)C1 (some centres undefined)
2. O=Cc1c(-c2ccccc2)[nH]c2ccccc2c1=O
3. O=C1C2Cc3c(n(C(=O)c4ccccc4)c4ccccc34)CC2C(=O)N1c1ccc(Nc2ccc(N3C(=O)C4Cc5c(n(C(=O)c6ccccc6)c6ccccc56)CC4C3=O)cc2)cc1 (centres undefined)
4. O=C(Cn1c(=O)oc2ccc(C(=O)c3ccc(F)cc3)cc21)c1ccccc1
5. COc1cccc(C=C2N=C(c3ccccc3)N(n3c(-c4ccccc4)nc4ccccc4c3=O)C2=O)c1

> 50 µM
> 100 µM
> 100 µM
> 100 µM
> 100 µM

---

test system: SR leukemia; assay: NCI tumour cell line growth inhibition, 48 h
For each entry below, report its TGI value.

molecule: COc1ccc2nc3cc([N+](=O)[O-])ccc3c(NNc3ccccc3)c2c1
observation type: TGI
recorded result: 61.8 µM

List reported TGI for each of these molecules:
1. O=C(O)C(O)C(O)C(O)C(O)C(=O)O (stereo not given)
2. Clc1ccc(Nc2nc(Nc3ccccc3)nc(Nc3ccc(-c4cc(-c5ccc(Cl)cc5)on4)cc3)n2)cc1

> 100 µM
> 100 µM

Would you mind giving TGI for every molecule in the list below?
1. C/C(=N\NC(=S)NC(CCC(=O)O)C(=O)O)c1cnccn1 (stereo not given)
2. COc1cc(C2C(C(=O)Nc3ccc([N+](=O)[O-])cc3)=C(C)NC(C)=C2C(=O)Nc2ccc([N+](=O)[O-])cc2)ccc1O
3. COc1ccccc1-n1c(NN)nc2ccc(Br)cc2c1=O
4. O=C(Cc1csc2nc(-c3ccc(Cl)cc3)cn12)N/N=C/c1ccccc1O
5. Clc1ccc2ncc(-c3cccc(NC4CNC4)n3)n2c1
6. NS(=O)(=O)c1nnc(NC(=O)c2cccc([N+](=O)[O-])c2)s1
7. Cn1c2[n+](c3nc(N)[nH]c(=O)c31)C1OC(C2)C(O)C1O (stereo not given)

1: > 100 µM; 2: > 44.1 µM; 3: > 100 µM; 4: > 100 µM; 5: > 100 µM; 6: > 100 µM; 7: > 100 µM
